These measurements were taken from patent EP1179529A1.

Study target: MMP-3 (Homo sapiens, UniProt P08254)
Sequence (P08254 100-477): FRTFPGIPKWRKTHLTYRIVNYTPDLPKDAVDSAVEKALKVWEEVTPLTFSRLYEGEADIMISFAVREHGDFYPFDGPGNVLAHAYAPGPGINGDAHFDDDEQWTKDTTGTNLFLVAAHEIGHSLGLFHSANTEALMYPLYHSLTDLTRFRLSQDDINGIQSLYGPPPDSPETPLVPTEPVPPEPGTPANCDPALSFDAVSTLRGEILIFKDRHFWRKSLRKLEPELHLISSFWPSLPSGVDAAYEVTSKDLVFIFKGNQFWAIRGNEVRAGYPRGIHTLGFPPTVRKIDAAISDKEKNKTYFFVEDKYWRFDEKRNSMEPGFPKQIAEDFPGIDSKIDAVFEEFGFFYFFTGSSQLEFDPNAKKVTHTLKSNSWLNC
Protocol description: Assay for inhibition of stromelysin
Measurement parameters: human fibroblast stromelysin activated with human plasmin; substrate fluorescein-labeled casein; 37°C, 2 hours, pH 7.8
Structures can show the parent of a compound that is named as a salt.
Readout label: pIC50
Reminder that pIC50 is minus the log10 of a molar concentration.

Observe how each entry below is paired with its result.
- CC(=N)NCc1ccc(C[C@H](NC(=O)[C@H](CC(C)C)[C@H](CCCc2ccccc2)C(=O)NO)C(=O)O)cc1: 7.15
- COC(=O)[C@H](Cc1ccc(CNC(C)=N)cc1)NC(=O)[C@H](CC(C)C)[C@H](CCCc1ccccc1)C(=O)NO [Compound No. 9, hydrochloride]: 7.70

Moving on to the next molecule.
GET /value?item= CC(C)C[C@@H](C(=O)N[C@@H](Cc1ccc(CN)cc1)C(=O)O)[C@H](CCCc1ccccc1)C(=O)NO &field=pIC50 returns 7.54
